Recorded measurements of EC50, one per entry
- Study target: human orexin type 2 receptor (hOX2R) (Homo sapiens, UniProt O43614)
- Construct: expressed in transfected cells
- Sequence (O43614 whole entry): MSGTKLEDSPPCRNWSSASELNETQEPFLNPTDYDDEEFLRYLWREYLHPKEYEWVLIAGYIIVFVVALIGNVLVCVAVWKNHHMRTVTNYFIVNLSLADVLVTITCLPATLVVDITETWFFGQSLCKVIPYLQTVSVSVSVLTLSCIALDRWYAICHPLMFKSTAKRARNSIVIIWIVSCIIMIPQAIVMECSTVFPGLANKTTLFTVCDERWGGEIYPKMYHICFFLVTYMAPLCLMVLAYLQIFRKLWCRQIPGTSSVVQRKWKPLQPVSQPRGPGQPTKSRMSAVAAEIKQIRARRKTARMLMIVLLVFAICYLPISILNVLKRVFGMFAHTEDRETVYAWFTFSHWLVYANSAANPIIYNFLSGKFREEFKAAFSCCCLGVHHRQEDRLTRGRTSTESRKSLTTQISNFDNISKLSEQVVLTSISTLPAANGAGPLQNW
- Experiment notes: Measurement of orexin type 2 receptor agonist activity (FLIPR calcium fluorescence)
- Type: cell-based
- Test context: CHO cells expressing hOX2R, FLIPR calcium fluorescence; read-out: hOx2 pEC50 (converted)

{"columns": ["Molecule", "EC50"],
 "data": [
  ["O=C(NCC1(F)CC1)N1CC2(CC2)[C@H](NS(=O)(=O)CF)[C@@H]1Cc1cc(F)cc(-c2cc(F)cc(F)c2)c1F", "1 to 10 nM"],
  ["O=C([C@H]1CCO1)N1CC2(CC2)[C@H](NS(=O)(=O)CF)[C@@H]1Cc1cccc(-c2cccc(C(F)F)c2)c1F", "0.0794 to 1 nM"],
  ["O=C(NCC(F)(F)F)N1CC2(CC2)[C@H](NS(=O)(=O)C(F)F)[C@@H]1Cc1cc(F)cc(-c2ccccc2)c1F", "1 to 10 nM"],
  ["C[C@H](CF)NC(=O)N1CC2(CC2)[C@H](NS(=O)(=O)C(F)F)[C@@H]1Cc1cccc(-c2ccccc2)c1F", "1 to 10 nM"],
  ["N#CCS(=O)(=O)N[C@@H]1[C@H](Cc2cccc(-c3ccccc3)c2)N(C(=O)[C@H]2CCO2)CC12CC2", "10 to 100 nM"],
  ["C[C@@H](NC(=O)N1CC2(CC2)[C@H](NS(=O)(=O)CF)[C@@H]1Cc1cccc(-c2ccccc2)c1F)C(F)(F)F", "0.0794 to 1 nM"],
  ["CNS(=O)(=O)N[C@@H]1[C@H](Cc2cccc(-c3ccccc3)c2)N(C(=O)[C@H]2CCO2)CC12CC2", "1 to 10 nM"],
  ["O=C([C@@H](O)C1CC1)N1CC2(CC2)[C@H](NS(=O)(=O)C(F)F)[C@@H]1Cc1cc(F)cc(-c2ccccc2)c1F", "0.0794 to 1 nM"],
  ["C[C@@H](F)C(=O)N1CC2(CC2)[C@H](NS(=O)(=O)CF)[C@@H]1Cc1cccc(-c2cc(F)cc(F)c2)c1F", "10 to 100 nM"],
  ["CN(C)C(=O)N1CC2(CC2)[C@H](NS(C)(=O)=O)[C@@H]1Cc1cccc(-c2cc(F)cc(F)c2)c1 (racemic)", "10 to 100 nM"],
  ["O=C([C@H]1CCO1)N1CC2(CC2)[C@H](NS(=O)(=O)C(F)F)[C@@H]1Cc1cccc(-c2ccccc2)c1F", "0.0794 to 1 nM"],
  ["O=C([C@H](O)CF)N1CC2(CC2)[C@H](NS(=O)(=O)CF)[C@@H]1Cc1cc(F)cc(-c2cc(F)cc(F)c2)c1F", "1 to 10 nM"],
  ["COC1(C(=O)N2CC3(CC3)[C@H](NS(C)(=O)=O)[C@@H]2Cc2cccc(-c3ccccc3)c2)CC1", "10 to 100 nM"]
]}
